Origin of measurements: patent US20240287052A1

biological target: IL33 and ST2 binding (Homo sapiens, UniProt O95760); settings: 100 µM;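 further: plate ELISA with coated Flag-tagged human IL-33 and His-tagged human ST2, bound ST2 detected by anti-His HRP and TMB absorbance at 450 nm, 2 h compound incubation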
Sequence (O95760 112-270 limits assumed): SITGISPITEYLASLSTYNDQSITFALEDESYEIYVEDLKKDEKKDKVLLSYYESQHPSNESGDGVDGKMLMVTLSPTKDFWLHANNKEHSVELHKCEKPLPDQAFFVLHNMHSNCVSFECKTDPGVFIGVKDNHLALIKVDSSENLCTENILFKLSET
quantity.measured: inhibition (%)

Some entries whose results are on file:
{"compound": "O=C(c1nc(-c2ccc(C(F)(F)F)cc2)oc1-c1ccccc1[N+](=O)[O-])N1CCN(CCN2CCCCC2)CC1 [Compound 151]", "number": -16}
{"compound": "CCOC(=O)c1nc(-c2ccccc2C(F)(F)F)oc1-c1ccccc1[N+](=O)[O-] [Compound 28]", "number": 53}
{"compound": "CN1CCN(CCNC(=O)c2coc(-c3ccc(C(F)(F)F)cc3)n2)CC1 [Compound 115]", "number": -17}
{"compound": "CN(C)CCNC(=O)c1nc(-c2ccc(C(F)(F)F)cc2)oc1-c1ccccc1[N+](=O)[O-] [Compound 131]", "number": 92}
{"compound": "O=C(NCCN1CCNCC1)c1nc(-c2ccc(C(F)(F)F)cc2)oc1-c1ccccc1[N+](=O)[O-] [Compound 281]", "number": 71}
{"compound": "COc1ccc(-c2nc(C(=O)NCCN3CCN(C)CC3)c(-c3ccccc3[N+](=O)[O-])o2)cc1 [Compound 215]", "number": 33}
{"compound": "CCOC(=O)c1nc(-c2ccc(C(F)(F)F)cc2)oc1-c1cccc(N(C(C)=O)C(C)=O)c1 [Compound 108]", "number": -21}
{"compound": "O=C(NCc1ccccc1)c1nc(-c2ccc(C(F)(F)F)cc2)oc1-c1ccccc1[N+](=O)[O-] [Compound 164]", "number": 4}
{"compound": "CN(C)CCN1CCN(C(=O)c2nc(-c3ccc(Cl)cc3)oc2-c2ccccc2[N+](=O)[O-])CC1 [Compound 248]", "number": 63}
{"compound": "CCOC(=O)N1CCN(C(=O)c2nc(-c3ccc(C(F)(F)F)cc3)oc2-c2ccccc2[N+](=O)[O-])CC1 [Compound 163]", "number": -19}

a: O=C(Nc1ccccn1)c1nc(-c2ccc(C(F)(F)F)cc2)oc1-c1ccccc1[N+](=O)[O-] [Compound 143]
b: CCOC(=O)c1nc(-c2ccc(C(F)(F)F)cc2)oc1-c1cccc(N)c1 [Compound 100]
Query block: Which entry shows the lesser value of inhibition here, a or b ? Please indicate the selected item by its label.
Result block: b
(b: 5%, a: 8%)

P: CN(C)CCNC(=O)c1coc(-c2ccc(C(F)(F)F)cc2)n1 [Compound 114]
Q: O=C(NCc1ccc(C(F)(F)F)cc1)c1nc(-c2ccc(C(F)(F)F)cc2)oc1-c1ccccc1[N+](=O)[O-] [Compound 148]
R: COc1cccc(-c2nc(C(=O)NCCN(C)C)c(-c3ccccc3[N+](=O)[O-])o2)c1 [Compound 210]
Query block: hey, can you rank those compounds up there by inhibition? biggest number first please Field: ranking. Enter the labels in the order requested.
Result block: Q, P, R
(Q: 19%, P: 9%, R: -19%)
